# credit: ChEMBL document CHEMBL1201862

test system: RXF 393; test: NCI tumour cell line growth inhibition, 48 h
Activity calls are given as the source filed them. No stated cut-off is given here; in the data, active = GI50 up to about 1.1 µM and inactive = higher.
endpoint name: GI50

Asked: // lookup GI50 for `NC(=O)N/N=C\c1ccccc1OCc1cccc(COc2ccccc2/C=N\NC(N)=O)n1`
Given back: 12.9 µM (inactive)

Asked: And O=C(c1ccccc1)N1OCCC1Nc1ccc(Br)cc1 (centres undefined) ?
Given back: > 10 µM (inactive)

Asked: And `CCCNC1=C(C(=O)OCC)C(=O)CO1` ?
Given back: > 100 µM (inactive)

Asked: And `Oc1ccc(SCc2ccc(NCc3ccccc3)cc2)cc1` ?
Given back: 19.9 µM (inactive)

Asked: And CCN(CC)C(=O)CCNC(C)Cc1c[nH]c2ccccc12 (centres undefined) ?
Given back: > 100 µM (inactive)

Asked: And CCOC(=O)C1C(=O)c2cccc(OC)c2C2COC(=O)N12 (centres undefined) ?
Given back: > 100 µM (inactive)

Asked: And O=[N+]([O-])c1ccc(C2CC(c3ccccc3Cl)=Nc3ccccc3S2)cc1 (centres undefined) ?
Given back: 3.26 µM (inactive)

Asked: And COC(=O)/C(=N\N)C(C(=O)C(=O)Nc1nnc(S)[nH]1)c1nc2ccc([N+](=O)[O-])cc2nc1O (centres undefined) ?
Given back: > 100 µM (inactive)

Asked: And O=C(Nc1ccc(Cl)cc1)c1cc(S(=O)(=O)NC2=Nc3ccc(Cl)cc3C(c3ccccc3)N2)c(SSc2cc(Cl)c(C(=O)Nc3ccc(Cl)cc3)cc2S(=O)(=O)NC2=Nc3ccc(Cl)cc3C(c3ccccc3)N2)cc1Cl (centres undefined) ?
Given back: > 100 µM (inactive)

---

Assign GI50 to each entry below.
system: MDA-N; assay: NCI tumour cell line growth inhibition, 48 h
Active and inactive are the calls of the source. No stated cut-off is given here; in the data, active = GI50 up to about 1.1 µM and inactive = higher.

Asked: // lookup GI50 for COc1ccc([S+]([O-])Cc2cc(OC)ccc2OC)cc1 (centres undefined)
Given back: > 100 µM (inactive)

Asked: And CC1=C/C(=N\OCC(=O)O)CC(c2ccc(C(C)C)cc2)C1 (centres undefined) ?
Given back: 34.5 µM (inactive)

Asked: And `Cc1ccc(/N=N/C(=NNC(=O)c2ccc(C)cc2)c2ccc(N(C)C)cc2)cc1` ?
Given back: 19.8 µM (inactive)

Asked: And `Clc1ccc(CSC2=NCCN2)cc1Cl` ?
Given back: 11.7 µM (inactive)

Asked: And `CCOC(=O)/C1=C(\C)N(Cc2ccccc2)C(=O)c2ccccc2C(=O)c2c(OC(C)=O)ccc(OC(C)=O)c21` ?
Given back: 36 µM (inactive)

Asked: And `N#CC(C#N)=C1c2ccccc2C(=NN)c2ccccc21` ?
Given back: > 100 µM (inactive)

Asked: And `OC(C#Cc1ccccc1)(c1ccccc1)c1ccccc1` ?
Given back: 23.4 µM (inactive)

Asked: And `COc1cc(/C=N/n2c(Cc3ccc(Cl)cc3)n[nH]c2=O)cc(OC)c1OC` ?
Given back: > 100 µM (inactive)

Asked: And Cc1cc(-c2nc3cc(F)ccc3s2)ccc1NC(=O)C(C)N (centres undefined) ?
Given back: 4.21 µM (inactive)

Asked: And O=C(c1ccccc1)N1OCCC1Nc1ccc(Br)cc1 (centres undefined) ?
Given back: 3.8 µM (inactive)

Asked: And `C(#C[C@@]12CCC[C@@H]1NCO2)c1ccc2c(c1)OCO2` ?
Given back: 61.5 µM (inactive)

Asked: And CN1C(=O)C2(C=CC(O)CC2)c2ccccc21 (centres undefined) ?
Given back: > 100 µM (inactive)

Asked: And `CN(C)CCCNC(=O)N/N=C/c1ccc([N+](=O)[O-])cc1` ?
Given back: 82.4 µM (inactive)

Asked: And `NS(=O)(=O)OCCCCCCCOS(N)(=O)=O` ?
Given back: 392 µM (inactive)

Asked: And CCOC(=O)C(NC(=O)CC)(Nc1ccccc1F)C(F)(F)F (centres undefined) ?
Given back: > 100 µM (inactive)

Asked: And COc1ccc(N2C(=O)C3c4[nH]c5ccccc5c4C4CCCCCCCCCC4C3C2=O)cc1 (centres undefined) ?
Given back: > 10 µM (inactive)

Asked: And `Cc1c(/C=N/NC(=S)Nc2ccc(Cl)cc2)c(=O)n(-c2ccccc2)n1C` ?
Given back: > 100 µM (inactive)

Asked: And `COc1ccc2cc(/C=N\NC(=O)Nc3ccc([N+](=O)[O-])cc3)ccc2c1` ?
Given back: 13 µM (inactive)

Asked: And `NC1=NCCN1CC(=O)O` ?
Given back: > 10000 µM (inactive)

Asked: And C[C@H](O)C1CC(Cn2nnc3c(N)ncnc32)C1(C)C (some centres undefined) ?
Given back: > 100 µM (inactive)

Asked: And `O=C1C=CC=C/C1=C1\N=C(c2ccccc2OCC(=O)c2ccc(Br)cc2)SS1` ?
Given back: > 100 µM (inactive)

Asked: And `Cc1c(C(=O)OCc2ccccc2)[n+]([O-])c2ccccc2[n+]1[O-]` ?
Given back: 41.6 µM (inactive)

Asked: And `COc1ccc(OC)c(CSc2ccc(OC)c(OC)c2)c1` ?
Given back: > 77.6 µM (inactive)

Asked: And `NNc1nc2ccccc2c(=O)n1NC(=O)C(=O)Nc1cccc(C(F)(F)F)c1` ?
Given back: > 100 µM (inactive)

---

Assign GI50 to each entry below.
system: ACHN; experiment: NCI tumour cell line growth inhibition, 48 h
Active and inactive are the calls of the source. No stated cut-off is given here; in the data, active = GI50 up to about 1.1 µM and inactive = higher.

Asked: // lookup GI50 for Cc1ccc(S(=O)(=O)N/N=C2/C3CC4CCC2C4C3)cc1 (stereo unspecified)
Given back: > 100 µM (inactive)

Asked: And COc1ccccc1OCC(COC(=O)Nc1ccc(C)cc1)OC(=O)Nc1ccc(C)cc1 (stereo unspecified) ?
Given back: 21.8 µM (inactive)

Asked: And Nc1ccccc1C(=O)C(Br)C(Br)c1ccc2c(c1)OCO2 (stereo unspecified) ?
Given back: 18.2 µM (inactive)

Asked: And O=C1CC2C=CC(O)C(C1)C2 (stereo unspecified) ?
Given back: > 100 µM (inactive)

Asked: And `c1ccc(SC(CCCCC(Sc2ccccc2)Sc2ccccc2)Sc2ccccc2)cc1` ?
Given back: > 100 µM (inactive)

Asked: And O=C1C2C(C(=O)N1c1ccccc1)C1(Br)c3ccccc3C2(Br)C2C(=O)N(c3ccccc3)C(=O)C21 (stereo unspecified) ?
Given back: 18.1 µM (inactive)

---

system: U-251; assay: NCI tumour cell line growth inhibition, 48 h
Active and inactive are the calls of the source. No stated cut-off is given here; in the data, active = GI50 up to about 1.1 µM and inactive = higher.
Assign GI50 to each entry below.

Asked: // lookup GI50 for C[C@]12CCC(=O)C=C1CC[C@@H]1[C@@H]2[C@@H](O)C[C@@]2(C)[C@H]1CC[C@]2(O)C(=O)COC(=O)CCC1CCCC1 [HYDROCORTISONE CYPIONATE]
Given back: > 100 µM (inactive)

Asked: And NC1=CN2c3ccccc3N(CC(=O)O)C2C=C1 (stereo not given) ?
Given back: > 100 µM (inactive)

Asked: And `CSc1nc(C)c2c(n1)N(c1ccc(Cl)cc1)CC2` ?
Given back: > 100 µM (inactive)

Asked: And `COC(=O)/C=C1\CCCN1CCc1cc2c(cc1CC#N)OCO2` ?
Given back: 39.7 µM (inactive)

Asked: And `COc1cc(/C=N/n2c(Cc3ccc(Cl)cc3)n[nH]c2=O)cc(OC)c1OC` ?
Given back: > 100 µM (inactive)

---

test system: NCI-H522; assay: NCI tumour cell line growth inhibition, 48 h
Activity calls are given as the source filed them. Cut-off read from the data, not from the text of the source: active = GI50 up to about 1.1 µM and inactive = higher.
Classes to choose from: active, inactive

Asked: Call for entry Cc1cc(-c2nc3cc(F)ccc3s2)ccc1NC(=O)C(C)N (stereo not given) :
Given back: inactive

Asked: And C[C@]12CCC(O)CC1=CC[C@@H]1[C@@H]2CC[C@]2(C)C(O)[C@H](n3ccnc3)C[C@@H]12 (stereo not given in full) ?
Given back: inactive

Asked: And C=C1CC2(CCOc3ccc(Cl)cc32)OC1=O (stereo not given) ?
Given back: active

Asked: And `CCCCCCCCCCCCCC1=C(O)C(=O)C(CC2=C(O)C(=O)C(CCCCCCCCCCCCC)=C(O)C2=O)=C(O)C1=O` ?
Given back: inactive

Asked: And C=[N+](CNC(=O)CNC(=O)C(Cc1ccccc1)NC(=O)OC(C)(C)C)C(=O)CNC(=O)C(Cc1ccccc1)NC(=O)OC(C)(C)C (stereo not given) ?
Given back: inactive

---

test system: SNB-75; assay: NCI tumour cell line growth inhibition, 48 h
Calls of active or inactive are those of the source. Rule as the data show it: active = GI50 up to about 1.1 µM and inactive = higher.
endpoint name: GI50

Asked: // lookup GI50 for O=C1NC(=O)C2(CCC(O)C2)c2cc[n+]([O-])cc21 (configuration not stated)
Given back: 60.1 µM (inactive)

Asked: And CCCCCCCCCCCCCCCCCCOCC(O)CO (configuration not stated) [BATILOL] ?
Given back: 9.48 µM (inactive)

Asked: And `CN(CCCNC(=O)c1nn(-c2ccc(Cl)cc2Cl)c2c1Cc1ccccc1-2)CCCNC(=O)c1nn(-c2ccc(Cl)cc2Cl)c2c1Cc1ccccc1-2` ?
Given back: 1.55 µM (inactive)

Asked: And COc1ccc2c(c1)CCC(OS(=O)(=O)CC13CCC(CC1=O)C3(C)C)C2=O (configuration not stated) ?
Given back: 31.1 µM (inactive)

Asked: And `CC(O)=C1C(=O)CCC1=O` ?
Given back: > 100 µM (inactive)

Asked: And COc1ccc(N2C(=O)C3c4[nH]c5ccccc5c4C4CCCCCCCCCC4C3C2=O)cc1 (configuration not stated) ?
Given back: > 10 µM (inactive)

Asked: And `Cc1c(/C=N/NC(=S)Nc2ccc(Cl)cc2)c(=O)n(-c2ccccc2)n1C` ?
Given back: 15.9 µM (inactive)

Asked: And O=C(CCCCCCC(=O)Nc1cccnc1)NO [PYROXAMIDE] ?
Given back: 18.1 µM (inactive)

Asked: And Cc1ccc(S(=O)(=O)N/N=C2/C3CC4CCC2C4C3)cc1 (configuration not stated) ?
Given back: > 100 µM (inactive)

Asked: And `Cc1ccc(N)cc1.O=S(=O)(O)/C(=C\c1ccccc1)c1ccccc1` ?
Given back: > 100 µM (inactive)

Asked: And `O=C(O)[C@@H]1C[C@@H](O)CN1C(=O)OCc1ccccc1` ?
Given back: 1.16 µM (inactive)

Asked: And CC12CP(=O)(O)CC1C2(Cl)Cl (configuration not stated) ?
Given back: > 100 µM (inactive)

Asked: And `COc1ccc(NC(=O)CC(=O)n2nc(-c3ccccc3)c(/N=N/c3ccc(C)cc3)c2-c2ccccc2)cc1` ?
Given back: 16.4 µM (inactive)

Asked: And NC1=CN2c3ccccc3N(CC(=O)O)C2C=C1 (configuration not stated) ?
Given back: > 100 µM (inactive)

Asked: And COCC(=O)OC1CCn2c1nc1c2C(=O)C(C)=C(NC(C)=O)C1=N (configuration not stated) ?
Given back: 15.3 µM (inactive)

Asked: And Cc1cc(-c2nc3cc(F)ccc3s2)ccc1NC(=O)C(C)N (configuration not stated) ?
Given back: 5.05 µM (inactive)

Asked: And `Cc1cc(C)n(-c2nsc3ccccc23)n1` ?
Given back: 26.9 µM (inactive)

Asked: And c1cc2c3c(c1)c1cc4c(cc1c[n+]3CC2)OCO4 [ANHYDROLYCORINIUM CHLORIDE] ?
Given back: 2.44 µM (inactive)

Asked: And `O=C1/C(=C/c2ccc3c(c2)CCC3)Cc2cc3c(cc21)CCC3` ?
Given back: 26.2 µM (inactive)

Asked: And Cc1ccc(NC(=O)C(=O)C(C(=O)/C=C/c2ccccc2)C2OC(=O)c3ccccc32)c(C)c1 (configuration not stated) ?
Given back: > 100 µM (inactive)

Asked: And `Cc1ccc(/N=N/c2c(C)nn(C(=O)CC(=O)Nc3ccc(Cl)cc3)c2C)cc1C` ?
Given back: 21 µM (inactive)

Asked: And COc1cc2c(cc1OC)C1Cc3ccccc3CCN1CC2 (configuration not stated) ?
Given back: 68.5 µM (inactive)
